tested on: Enterococcus faecalis; test: Antibacterial activity against vancomycin-resistant Enterococcus faecalis after 16 hrs by microtiter plate assay; assay type: functional
This section presents compounds with their documented MIC values.
value kind: MIC (µM)

CC(/C=C/C(O)=C1/C(=O)CNC1=O)=C\[C@@H](C)[C@H]1O[C@@]2(C)O[C@H](C(=O)[C@H]3O[C@]32CO)[C@@H]1C    100
CC(/C=C/C(O)=C1/C(=O)CNC1=O)=C\[C@@H](C)[C@H]1O[C@@]2(C)O[C@H](C(=O)[C@H]3O[C@]32C)[C@@H]1C    2.25
CC1=CC[C@H]2O[C@]1(C)O[C@H]([C@H](C)/C=C(C)/C=C/C(O)=C1/C(=O)CNC1=O)[C@H]2C    110
